Overview of recorded IC50 for various compounds
test system: BA/F3 (insSVD) cells; test: Ba/F3-EGFR-insSVD cell survival assay (Cell Titer-Glo); assay type: cell-based; details: Mus musculus, BaF3, 48 h, Table 3a, cell survival, Cell Titer-Glo, with 10 ng/ml EGF, without IL-3
Enter the number, and then the unit.

Cc1c[nH]c2nccc(-c3c(-c4ccc(F)cc4)nn4c3CN(C(=O)/C=C/CN(C)C)[C@@H](C)C4)c12 [Example 257] ... 30.7 nM
C=CC(=O)N1Cc2c(-c3ccncc3)c(-c3ccc(F)cc3)nn2C(C(=O)N(C)C)C1 (single isomer, unassigned; isomer 1) [Example 206] ... 600 nM
C=CC(=O)N1CCn2nc(-c3ccc(C(F)(F)F)cc3)c(-c3ccncc3C3CC3)c2C1 [Example 55] ... 744 nM
C[C@@H]1Cn2nc(-c3ccc(Cl)cc3)c(-c3ccncc3)c2CN1C(=O)/C=C/CN(C)C [Example 246] ... 33.7 nM
C=CC(=O)N1CCn2nc(-c3cccc(C#N)c3F)c(-c3ccncc3)c2C1 [Example 120] ... 933 nM

// below: IC50 requested for another compound
Enquiry: Please look at C=CC(=O)N1CCn2nc(-c3ccc(OC)c(Cl)c3)c(-c3ccncc3)c2C1 [Example 38] and tell me its recorded IC50 on BA/F3 (insSVD) cells.
Return: 32.1 nM
